- System: recombinant NL4-3 viruses with polymorphisms at IN positions 124 and 125
- assay-name: Multiple-round infection of MT4 cells with recombinant NL4-3 viruses polymorphic at IN positions 124 and 125
- Type: cell-based, HIV-1
- experimental-parameters: recombinant NL4-3, IN 124/125 NA
measured-attribute: Fold change in EC50 relative to parental NL4-3, NA

Worked examples, 3 molecules total:
molecule="Cc1nc2ccccc2c(-c2ccc3c4c(ccnc24)CCO3)c1[C@H](OC(C)(C)C)C(=O)O [BI-224436, reference compound]" recorded_value=1
molecule="Cc1ccc(C2CC2)c(-c2ccc3c(c2)CCCO3)c1[C@H](OC1CC1)C(=O)O [MUT872]" recorded_value=1
molecule="Cc1ccc(C2CC2)c(-c2ccc3c(c2C)CCCO3)c1[C@H](OC1CC1)C(=O)O [MUT884]" recorded_value=2

Next up:
Endpoint output: Fold change in EC50 relative to parental NL4-3, NA of Cc1cc(NS(=O)(=O)CC2CCCCC2)c(C)c(C(OC(C)(C)C)C(=O)O)c1-c1ccc2c(c1)CCCO2 (stereo not shown) [S-I-82, reference compound] . Value?
10
